Each entry below carries its recorded pIC50.
- tested.target: IRAK-4 (Homo sapiens (Human))
- assay.remarks: In vitro IRAK-4 kinase assay
- condition.context: purified recombinant IRAK-4, 50 uM ATP, 33P peptide phosphorylation
Conceptually, pIC50 converts a concentration in mol/L into minus its log10.

Below, each entry is followed by its recorded pIC50 result.
COc1cc(C(=O)NCCO)ccc1NC(=O)c1cnn2cccnc12 | 5.53
O=C(Nc1cc(Cl)ccc1OCCCCO)c1cnn2cccnc12 | 6.36
Cc1ccn2ncc(C(=O)Nc3cc(Cl)ccc3OC3CCC(O)CC3)c2n1 (stereo not drawn) | 5.18
O=C(Nc1cc(Cl)ccc1OC1CCC(O)CC1)c1cnn2cc(Br)cnc12 (stereo not drawn) | 6.86
COC(=O)COc1ccc(Cl)cc1NC(=O)c1cnn2cccnc12 | 5.37
CCc1ccc(Cl)cc1NC(=O)c1cnn2cccnc12 | 5.42
COc1ccc(Cl)cc1NC(=O)c1csc2cnc(N(C)CCO)nc12 | 5.38
O=C(Nc1cc(Cl)ccc1O[C@H]1CC[C@@H](O)CC1)c1csc2cncnc12 | 6.83

With those in mind, consider the next molecule.
**Q:** What does the record list as pIC50 for O=C(Nc1cc2ccccc2cc1OC1CCC(O)CC1)c1cnn2cccnc12 (stereo not drawn) ?
**A:** 6.91

###

- tested.target: IRAK-4 (Homo sapiens (Human), UniProt Q9NWZ3)
- Sequence (Q9NWZ3 whole entry, species assumed): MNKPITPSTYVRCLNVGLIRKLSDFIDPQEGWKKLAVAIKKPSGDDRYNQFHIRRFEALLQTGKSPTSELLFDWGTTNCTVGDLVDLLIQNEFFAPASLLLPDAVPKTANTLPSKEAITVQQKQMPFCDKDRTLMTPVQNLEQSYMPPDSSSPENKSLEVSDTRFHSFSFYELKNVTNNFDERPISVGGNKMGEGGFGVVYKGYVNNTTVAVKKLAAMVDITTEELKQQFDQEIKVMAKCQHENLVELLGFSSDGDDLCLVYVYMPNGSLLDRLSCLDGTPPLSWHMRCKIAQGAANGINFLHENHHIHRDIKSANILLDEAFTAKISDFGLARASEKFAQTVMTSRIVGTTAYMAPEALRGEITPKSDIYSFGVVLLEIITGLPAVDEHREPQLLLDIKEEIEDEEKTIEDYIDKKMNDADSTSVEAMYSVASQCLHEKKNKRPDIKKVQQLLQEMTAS
- assay.remarks: In vitro IRAK-4 kinase assay
- condition.context: purified recombinant IRAK-4, 50 uM ATP, 33P peptide phosphorylation
Structures can show the parent of a compound that is named as a salt.
Each entry below carries its recorded pIC50.
Conceptually, pIC50 converts a concentration in mol/L into minus its log10.

CN1CCN(c2ccc(Cl)cc2NC(=O)c2cnn3cccnc23)CC1 | 6.29
O=C(Nc1cc2ccccc2cc1OC1CCC(O)C1)c1cnn2cccnc12 (stereo not drawn) | 6.75
O=C(Nc1cc2cccnc2cc1OC1CCNCC1)c1csc2cncnc12 [Example 56, hydrochloride] | 6.90
O=C(Nc1cc(Cl)ccc1OCCCO)c1csc2cncnc12 | 5.61
O=C(Nc1nc2ccccc2n1CCCO)c1csc2cncnc12 | 5.64

**Q:** What does the record list as pIC50 for "O=C(Nc1cc(Cl)ccc1-c1cccc(O)c1)c1cnn2cccnc12" ?
**A:** 5.69

###

- tested.target: IRAK-4 (Homo sapiens (Human), UniProt Q9NWZ3)
- assay.remarks: In vitro IRAK-4 kinase assay
- condition.context: purified recombinant IRAK-4, 50 uM ATP, 33P peptide phosphorylation
Binary label based on IC50 with cut-off 2 µM: below gives label 1, not below gives label 0.

Field: example entries. Status: answers known.
COc1c(C)cc(C)cc1NC(=O)c1cnn2cccnc12 | label 0
O=C(Nc1cc(Cl)ccc1C1CCCCC1)c1cnn2cccnc12 | label 1
COc1cc2ccccc2cc1NC(=O)c1cnn2cccnc12 | label 1
CNCC1CCN(c2ccc(Cl)cc2NC(=O)c2csc3cncnc23)CC1 [Example 151] | label 0
COc1ccc(Cl)cc1NC(=O)c1csc2cnc(N(C)CCN)nc12 | label 1

**Q:** Would you kindly verify if IC50 of "O=C(Nc1cc(Cl)ccc1Oc1cccc(O)c1)c1cnn2cccnc12" is strictly less than 2 µM?
**A:** label 0

**Q:** // query: "O=C1Cc2cc(N3CCC(CO)CC3)c(NC(=O)c3cnn4cccnc34)cc2N1"
**A:** label 1

**Q:** // query: O=C(Nc1cc(Cl)ccc1N1CCCCC1CO)c1cnn2cccnc12 (stereo not shown)
**A:** label 0

###

- tested.target: IRAK-4 (Homo sapiens (Human), UniProt Q9NWZ3)
- assay.remarks: In vitro IRAK-4 kinase assay
- condition.context: purified recombinant IRAK-4, 50 uM ATP, 33P peptide phosphorylation
readout.kind: IC50 (nM)
Number only, in nM; omit the unit.

O=C(Nc1cc(Cl)ccc1OCCC(O)CO)c1cnn2cccnc12 (stereo not drawn) | 506
O=C(Nc1cc(Cl)ccc1OCc1cccc(O)c1)c1cnn2cccnc12 | 2630
O=C(Nc1cc(Cl)ccc1N1CCC(CO)CC1)c1csc2cncnc12 | 100
NC1CCN(c2ccc(Cl)cc2NC(=O)c2cnn3cccnc23)CC1 | 251
COc1cc(OC)c(NC(=O)c2cnn3cccnc23)cc1Cl | 2740

**Q:** Identify the measured IC50 of COc1cnc2c(C(=O)Nc3cc(Cl)ccc3OC3CCC(O)CC3)cnn2c1 (stereo not drawn) for IRAK-4 (Homo sapiens (Human), UniProt Q9NWZ3).
**A:** 301

**Q:** // query: "O=C(Nc1cc(Cl)ccc1-c1ccc(O)cc1)c1cnn2cccnc12"
**A:** 477

**Q:** // query: "Nc1cccc(NC(=O)c2cnn3cccnc23)c1N1CCCCC1"
**A:** 156

**Q:** // query: "COc1ccc(Br)cc1NC(=O)c1cnn2cccnc12"
**A:** 2140

###

Each entry below carries its recorded log10 IC50.
- tested.target: IRAK-4 (Homo sapiens (Human))
- assay.remarks: In vitro IRAK-4 kinase assay
- condition.context: purified recombinant IRAK-4, 50 uM ATP, 33P peptide phosphorylation
Where a name gives a salt, the structure may show the parent alone.
The figures below represent log10 of IC50, where IC50 is stated in nM.

COc1cc2cc[nH]c2cc1NC(=O)c1cnn2cccnc12 [Example 110] | 2.90
NC(=O)c1cnc2c(C(=O)Nc3cc(Cl)ccc3OC3CCC(O)CC3)cnn2c1 (stereo not shown) [Example 52] | 2.03

**Q:** What does the record list as log10 IC50 for COc1cc2[nH]ncc2cc1NC(=O)c1cnn2cccnc12 [Example 69] ?
**A:** 2.36

**Q:** // query: COc1cc(-c2ccccc2)c(C)cc1NC(=O)c1cnn2cccnc12 [Example 167]
**A:** 3.77

**Q:** // query: COc1cc2ncccc2cc1NC(=O)c1csc2cnc(NCC(C)C)nc12 [Example 73]
**A:** 2.43

**Q:** // query: O=C(Nc1cc(Cl)ccc1N1CCCCCC1)c1cnn2cccnc12 [Example 119]
**A:** 3.18

**Q:** // query: NC1CCC(Oc2ccc(Cl)cc2NC(=O)c2csc3cncnc23)CC1 (stereo not shown) [Example 118]
**A:** 3.17

**Q:** // query: CC[C@@H](CO)Nc1ncc2scc(C(=O)Nc3cc(Cl)ccc3OC)c2n1 [Example 131]
**A:** 3.35

**Q:** // query: O=C(Nc1ccccc1-c1ccccc1)c1cnn2cccnc12 [Example 116]
**A:** 3.09

**Q:** // query: O=C(Nc1cc(Cl)ccc1O[C@H]1CC[C@H](O)CC1)c1csc2cncnc12 [Example 81]
**A:** 2.53

**Q:** // query: O=C(Nc1cc(Cl)ccc1-c1ccccc1)c1cnn2cccnc12 [Example 100]
**A:** 2.73

**Q:** // query: O=C(Nc1cc(Cl)ccc1N1CCC(O)C1)c1cnn2cccnc12 (stereo not shown) [Example 95]
**A:** 2.69

**Q:** // query: CC(C)(CCO)Oc1cc2ncccc2cc1NC(=O)c1csc2cncnc12 [Example 35, hydrochloride]
**A:** 1.69

###

- tested.target: IRAK-4 (Homo sapiens (Human), UniProt Q9NWZ3)
- assay.remarks: In vitro IRAK-4 kinase assay
- condition.context: purified recombinant IRAK-4, 50 uM ATP, 33P peptide phosphorylation
Structures can show the parent of a compound that is named as a salt.
readout.kind: IC50 (nM)
Number only, in nM; omit the unit.

O=C(Nc1cc(Cl)ccc1N1CCCC1)c1cnn2cccnc12 [Example 78] | 312
O=C(Nc1cc2cccnc2cc1OC1CCNCC1)c1cnn2cccnc12 [Example 32, hydrochloride] | 40
Cc1cc2cc(-c3ccc(CO)cc3)c(NC(=O)c3cnn4cccnc34)cc2[nH]1 [Example 36] | 52
O=C(Nc1cc(Cl)ccc1OCc1cnco1)c1cnn2cccnc12 [Example 98] | 516
O=C(Nc1ccc2ncccc2c1)c1csc2cnc(NCCO)nc12 [Example 75] | 300

**Q:** What does the record list as IC50 for O=C(Nc1cc(Cl)ccc1N1CCCC(O)C1)c1cnn2cccnc12 (stereo not drawn) [Example 91] ?
**A:** 474

**Q:** // query: O=C(Nc1cc(Cl)ccc1OCCCO)c1cnn2cccnc12 [Example 84]
**A:** 430

**Q:** // query: COc1ccc(NC(=O)c2cnn3cccnc23)c(OC)c1 [Example 158]
**A:** 4170

###

Assay system human full length SYK (Homo sapiens (Human), UniProt P43405); read-out recorded as pIC50.
Where a name gives a salt, the structure may show the parent alone.
Conceptually, pIC50 converts a concentration in mol/L into minus its log10.

O=C(Nc1cc(Cl)ccc1OC1CCC(O)C1)c1cnn2cccnc12 (centres unmarked) | 6.18
COc1cc2ncccc2cc1NC(=O)c1csc2cnc(NCCO)nc12 | 6.67
O=C(Nc1cc2cccnc2cc1O[C@@H]1CC[C@H](O)C1)c1csc2cncnc12 [Example 54, hydrochloride] | 6.30
COc1cc2ncccc2cc1NC(=O)c1csc2cnc(NC3CC3)nc12 | 6.09

**Q:** What does the record list as pIC50 for "COc1ccc(Cl)cc1NC(=O)c1csc2cnc(NCCN)nc12" ?
**A:** 6.46
